target: FAD-linked sulfhydryl oxidase ALR (Homo sapiens) (UniProt P55789); experiment: inhibitors of human ALR sulfhydryl oxidase, dose response, biochemical, H2O2 detection, luminescence, cherry-pick (AID 493248); details: purified ALR, DTT oxidation, H2O2 HRP-luminol luminescence; at 10 µM (top of the series)
Sequence (P55789 whole entry, looked up): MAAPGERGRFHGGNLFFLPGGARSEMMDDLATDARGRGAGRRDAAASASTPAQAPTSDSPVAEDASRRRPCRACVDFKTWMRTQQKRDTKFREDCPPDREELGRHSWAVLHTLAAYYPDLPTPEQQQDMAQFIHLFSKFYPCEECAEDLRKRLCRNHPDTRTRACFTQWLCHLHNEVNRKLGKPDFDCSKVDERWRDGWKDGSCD
Among all 2,300 compounds or so, about 1,400 (61%) were called active. Roughly 7% stayed inconclusive and do not appear here. The set was probably picked from earlier hits. These entries were drawn from the full list. Measured potencies and affinities stand elsewhere.
For each entry below, report its activity change, negative = inhibition value.
Numbers only, in %.

Some solved entries appear below for comparison.
compound: N#Cc1c(N)c(C(=O)c2ccccc2)n2c1CCC2
experimental-system: FAD-linked sulfhydryl oxidase ALR (Homo sapiens) (UniProt P55789)
measurement-units: %
activity change, negative = inhibition: -45.9

compound: CCCn1cnc2cc(NCc3cccc(OC)c3)ccc21
experimental-system: FAD-linked sulfhydryl oxidase ALR (Homo sapiens) (UniProt P55789)
measurement-units: %
activity change, negative = inhibition: 395

compound: O=c1oc2ccccc2cc1-c1ccc(O)cc1O
experimental-system: FAD-linked sulfhydryl oxidase ALR (Homo sapiens) (UniProt P55789)
measurement-units: %
activity change, negative = inhibition: 371

compound: N#Cc1c2n(c3c(=O)n(Cc4ccccc4)cnc13)CCCC2
experimental-system: FAD-linked sulfhydryl oxidase ALR (Homo sapiens) (UniProt P55789)
measurement-units: %
activity change, negative = inhibition: 18

compound: O=C(O)c1ccc(N(c2ccccc2)c2ccccc2)cc1
experimental-system: FAD-linked sulfhydryl oxidase ALR (Homo sapiens) (UniProt P55789)
measurement-units: %
activity change, negative = inhibition: -77.1

compound: CNC(=O)c1csc(-c2ccc(C)cc2)n1
experimental-system: FAD-linked sulfhydryl oxidase ALR (Homo sapiens) (UniProt P55789)
measurement-units: %
activity change, negative = inhibition: 146

Report activity change, negative = inhibition for each item below.
1. CC(=O)Nc1ccc(NCN2C(=O)C3C4CCC(C4)C3C2=O)cc1 (stereo not given)
2. Cc1nc2ccc(S(=O)(=O)N(C)CC(=O)NCc3ccc(N(C)C)cc3)cc2s1
3. CS(=O)(=O)c1nsc2nc(=O)c(/C=C3\C=Nc4ccccc43)c(N)n12
4. Cn1cnc2cc(NCc3ccccc3O)ccc21
5. Nc1ccc2nc[nH]c2c1

[-86.6, -41.2, -69.9, 297, -12.8]

// each listed compound needs a value for activity change, negative = inhibition
1. COc1cc(/C=N/Nc2ccc(C(F)(F)F)cn2)ccc1O
2. Nc1ccccc1C(=O)NNc1c2ccccc2nc2ccccc12
3. CCCC(C(=O)O)n1c(O)c(C=C2N=c3ccccc3=N2)sc1=S (stereo not given)
4. O=C(O)c1[nH]c2ccccc2c1NS(=O)(=O)Cc1ccccc1
5. CC(C)Cc1nc2ccc(N)cc2[nH]1

1: -15; 2: -69.6; 3: -50.1; 4: -42.2; 5: -1.73

Report activity change, negative = inhibition for each item below.
1. O=C(O)c1cccc(NC(=O)c2cccc(S(=O)(=O)Nc3cccc([N+](=O)[O-])c3)c2)c1
2. O=c1[nH]nc(CNc2ccc(O)cc2)c2ccccc12

-2.25
-103

###

target: FAD-linked sulfhydryl oxidase ALR (Homo sapiens) (UniProt P55789); assay: inhibitors of human ALR sulfhydryl oxidase, dose response, biochemical, H2O2 detection, luminescence, cherry-pick (AID 493248); details: purified ALR, DTT oxidation, H2O2 HRP-luminol luminescence; at 10 µM (top of the series)
About 1,400 (61%) of roughly 2,300 compounds were called active. Roughly 7% stayed inconclusive and do not appear here. So high a share suggests a set chosen from earlier hits. These entries were drawn from the full list. Potency and affinity values are given separately.
measured-property: activity change, negative = inhibition (%)
One number for each entry, in %.

Study these solved cases before continuing.
compound: Fc1ccccc1Nc1n[nH]c(=S)s1
reported-value: -40.4

compound: O=C(O)CCCN1C(=O)/C(=C\c2ccc(-c3nc4ccccc4s3)o2)SC1=S
reported-value: -22.6

compound: COC(=O)c1c(NC(=O)CN2CCN(Cc3ccc4c(c3)OCO4)CC2)sc(C)c1C
reported-value: -8.94

Okay, here is my list. What is activity change, negative = inhibition for each of these?
1. CC(C)N(c1nnc(N)s1)C(C)C
2. C=CCn1c(-c2ccc(N)cc2)nc2ccccc21
3. CCc1c(C)sc(NC(=O)c2cc(C)no2)c1C#N
4. O=C(Cc1ccccc1)Nc1ccc(C(=O)Nc2ccccc2C(=O)O)cc1
5. CCn1c(SCc2nc3sc(C(=O)O)c(C)c3c(=O)[nH]2)nc2ccccc21
6. Cc1cccc(N2CCN(C(=O)Cn3sc4nc(C)cc(C)c4c3=O)CC2C)c1 (stereo not drawn)
7. C=CCn1c(-c2cc(OC)cc(OC)c2)n[nH]c1=S

1. -37.4
2. -33.2
3. -63.3
4. 5.48
5. -10.8
6. -57.4
7. -54.8

Respectfully, I request activity change, negative = inhibition for each entry included below.
1. COc1cc(/C=C2\SC(=S)N(NC(=O)c3ccc(O)cc3)C2=O)ccc1O
2. Cc1noc(NS(=O)(=O)c2ccc(NC(=O)CCN3C(=O)c4ccccc4C3=O)cc2)c1C
3. COc1ccc(O)c(CNc2ccccc2F)c1
4. Nc1ccc2c(c1)-c1ccccc1S(=O)(=O)N2
5. Cc1cccc(C(=O)N2CCCC(N3CCN(c4ccc(F)cc4)CC3)C2)n1 (stereo not drawn)
6. O=C(c1cc(-c2ccc(O)cc2)on1)N1CCN(c2ccccc2)CC1
7. Cc1ccc(N2CCN(S(=O)(=O)c3ccc4c(c3)NC(=O)C(C)C(=O)N4)CC2C)cc1 (stereo not drawn)
8. COCc1nnc(NC(=O)c2ccc(S(=O)(=O)N3CCCc4ccccc43)cc2)o1

-100
-21.6
-6.08
-105
-66.1
418
-30.2
-34.2

# return activity change, negative = inhibition for each item in the list
1. O=c1oc2c3c4c(cc2s1)CCCN4CCC3
2. Cc1ccccc1NC(=O)CNc1ccccc1N1CCCCC1
3. O=S(=O)(c1ccc(Cl)nc1)N1CCC(Cc2ccccc2)CC1
4. O=C(CNS(=O)(=O)c1ccccc1)N/N=C/c1ccc(O)cc1
5. COc1ccccc1N1CC(C(=O)Nc2nnc(SCc3cccnc3)s2)CC1=O (stereo not drawn)

1: -13.7; 2: -89.6; 3: -5.04; 4: -113; 5: -17.9

###

target: FAD-linked sulfhydryl oxidase ALR (Homo sapiens) (UniProt P55789); assay: inhibitors of human ALR sulfhydryl oxidase, dose response, biochemical, H2O2 detection, luminescence, cherry-pick (AID 493248); conditions: purified ALR, DTT oxidation, H2O2 HRP-luminol luminescence; at 10 µM (top of the series)
The campaign covered roughly 2,300 compounds. About 1,400 (61%) were called active. Another 7% or so got no clear call; they are omitted. The set was probably picked from earlier hits. A selection follows. Results with a measured potency or affinity are listed apart.
measured-property: activity change, negative = inhibition
Field note: include the unit after the figure.

molecule: Cc1nc2ccc(-c3ccccc3)cc2o1
activity change, negative = inhibition: -7.02%

Go through the items and report each one's activity change, negative = inhibition.
1. CCCCCCC(=O)N/N=C/c1ccco1
2. Cc1ccsc1C=Nc1ccc(O)cc1
3. O=c1[nH]ccc2c(O)cccc12
4. Cc1cccc(-c2n[nH]c(=S)n2/N=C/C=C/c2ccco2)c1
5. Cc1cc(NC(=O)c2sc(Nc3ccc(F)cc3)nc2N)no1
6. CCN(CC)CC(=O)c1ccc(-c2ccccc2)cc1
7. Cc1cc(Cc2ccc(N)c(C)c2)ccc1N
8. Cc1nnc(N2CCN(Cc3ccccc3)CC2)[nH]c1=O

["-28.6%", "-98%", "-103%", "-98%", "-41.5%", "-34.7%", "12.8%", "42.6%"]

// each molecule listed below needs its activity change, negative = inhibition
1. c1ccc(-c2cnc(CN3CCN(c4ccccc4)CC3)o2)cc1
2. c1c2c(cc3sc(N4CCCCC4)nc13)OCO2
3. COc1cccc2sc(Nc3nnc(-c4ccccc4Cl)o3)nc12
4. CC1=NN(C(=O)c2ccc(Br)cc2)C(O)(c2ccccc2)C1 (stereo not given)
5. COc1ccc(C2SCC(=O)N2Cc2ccccc2)cc1 (stereo not given)
6. O=C1c2cc(O)c(O)cc2S(=O)(=O)C1c1ccccc1 (stereo not given)
7. O=C(O)c1ccc(-n2c(/C=C/c3cccc([N+](=O)[O-])c3)nc3ccccc3c2=O)cc1
8. COc1ccc(NC2CCCN(C(=O)c3ccc(C)nc3)C2)cc1 (stereo not given)

-44.8%
-5.07%
-55.9%
286%
-33.1%
-13%
-30.3%
289%

Could you tell me activity change, negative = inhibition for each of these molecules? They are listed below.
1. CC(C)N1C(=O)C2C(c3ccccc3O)NC(C)(C(=O)O)C2C1=O (stereo not given)
2. Nc1nc(CN2CCN(C(=O)c3ccco3)CC2)nc(Nc2cccc(Cl)c2)n1
3. COc1ccc(-c2csc(NC(=O)[C@H](C)N3C(=O)C4CC=CCC4C3=O)n2)cc1OC (stereo not given in full)
4. O=c1c2c(nc3n1CCCCC3)sc1c(O)cccc12

1: 4.76%; 2: -24.8%; 3: -58.5%; 4: -92.9%
